Data credit: patent US10501493B2

Reported pIC50 values are given for each entry in this list.
# Tested target: S. aureus SPase (Staphylococcus aureus)
# Construct: Full length His-tagged S. aureus SPase protein was expressed similarly; His-tag; made in house; host or cells: E. coli BL21(DE3)
# Test method notes: Enzymatic fluorogenic substrate cleavage assay for IC50
# Format: biochemical
pIC50: −log10 of the molar value.
Value type: pIC50

1. CCCCCCCCCCCCCCCC(=O)N(C)[C@H](CO)C(=O)N[C@H](Cc1ccccc1)C(=O)NCC(=O)N(C)[C@@H]1C(=O)N[C@@H](C)C(=O)N[C@H](C(=O)O)Cc2ccc(O)c(c2)-c2cc1ccc2O    > 6.00
2. CCCCCCCCCCCCCCCC(=O)N(C)[C@H](CO)C(=O)N[C@H](C)C(=O)NCC(=O)N(C)[C@@H]1C(=O)N[C@@H](C)C(=O)N[C@H](C(=O)NC[C@H](C)O)Cc2ccc(O)c(c2)-c2cc1ccc2O    < 5.00
3. CCCCCCCCCCCCCCCC(=O)N(C)[C@H](CO)C(=O)N[C@H](C)C(=O)NCC(=O)N(C)[C@@H]1C(=O)N[C@@H](C)C(=O)N[C@H](C(=O)NC[C@@H](C)O)Cc2ccc(O)c(c2)-c2cc1ccc2O    5.00 to 6.00
4. CCCCCCCCCCCCCCCC(=O)N(C)[C@H](CO)C(=O)N[C@H](C)C(=O)NCC(=O)N(C)[C@@H]1C(=O)N[C@@H](C)C(=O)N[C@H](C(=O)N[C@H](CO)Cc2c[nH]c3ccccc23)Cc2ccc(O)c(c2)-c2cc1ccc2O    < 5.00

* * *

Reported MIC values are given for each entry in this list.
# Test system: S. epidermidis ATCC 12228
# Test method notes: In vitro antimicrobial activity, MIC by broth micro-dilution
# Assay type: cell-based
# Condition label: Staphylococcus epidermidis, ATCC12228, read-out: MIC
Value type: MIC

1) CCCCCCCCCCCCCCCC(=O)N(C)[C@H](CO)C(=O)N[C@H](C)C(=O)NCC(=O)N(C)[C@@H]1C(=O)N[C@@H](C)C(=O)N[C@H](C(=O)NCC(=O)N2CCCC2C(N)=O)Cc2ccc(O)c(c2)-c2cc1ccc2O (stereo partly drawn) [Compound 27]    32 µg/mL
2) CCCCCCCCCCCCCCCC(=O)N(C)[C@H](CO)C(=O)N[C@H](C)C(=O)NCC(=O)N(C)[C@@H]1C(=O)N[C@@H](C)C(=O)N[C@H](C(=O)NC(C)C=O)Cc2ccc(O)c(c2)-c2cc1ccc2O (stereo partly drawn) [Compound 33]    > 64 µg/mL
3) CCCCCCCCCCCCCCCC(=O)N(C)[C@H](CO)C(=O)N[C@H](C)C(=O)NCC(=O)N(C)[C@@H]1C(=O)N[C@@H](C)C(=O)N[C@H](C(=O)N[C@@H](C)C(N)=O)Cc2ccc(O)c(c2)-c2cc1ccc2O [Compound 15]    > 64 µg/mL

* * *

# Tested on: S. pneumoniae D39
# Test method notes: In vitro antimicrobial activity, MIC by broth micro-dilution
# Format: cell-based
# Condition label: Streptococcus pneumoniae, D39; read-out: MIC class, S. pneumoniae D39
Value type: MIC

1) CCCCCCCCCCCCCCCC(=O)N(C)[C@H](CO)C(=O)N[C@H](C)C(=O)NCC(=O)N(C)[C@@H]1C(=O)N[C@@H](C)C(=O)N[C@H](C(=O)N[C@H](C)CO)Cc2ccc(O)c(c2)-c2cc1ccc2O    16 to 64 µg/mL
2) CCCCCCCCCCCCCCCC(=O)N(C)[C@H](CO)C(=O)N[C@H](C)C(=O)NCC(=O)N(C)[C@@H]1C(=O)N[C@@H](C)C(=O)N[C@H](C(=O)N[C@H](CO)Cc2c[nH]c3ccccc23)Cc2ccc(O)c(c2)-c2cc1ccc2O    16 to 64 µg/mL
3) CCCCCCCCCCCCCCCC(=O)N(C)[C@H](CO)C(=O)N[C@H](C)C(=O)NCC(=O)N(C)[C@@H]1C(=O)N[C@@H](C)C(=O)N[C@H](C(=O)N[C@H](CO)C(C)O)Cc2ccc(O)c(c2)-c2cc1ccc2O (stereo partly shown)    16 to 64 µg/mL
4) CCCCCCCCCCCCCCCC(=O)N(C)[C@H](CO)C(=O)N[C@H](C)C(=O)N(C)CC(=O)N(C)[C@@H]1C(=O)N[C@@H](C)C(=O)N[C@H](C(=O)O)Cc2ccc(O)c(c2)-c2cc1ccc2O    < 8 µg/mL

* * *

# Tested target: S. aureus SPase (Staphylococcus aureus, UniProt P0A070)
# Construct: Full length His-tagged S. aureus SPase protein was expressed similarly; His-tag; made in house; host or cells: E. coli BL21(DE3)
# Test method notes: Enzymatic fluorogenic substrate cleavage assay for IC50
# Format: biochemical
# Condition label: fluorogenic peptide cleavage; read-out: IC50 class S. aureus SPase
Value type: IC50

1) CCCCCCCCCCCCCCCC(=O)N(C)[C@H](CO)C(=O)N[C@H](C)C(=O)NCC(=O)N(C)[C@@H]1C(=O)N[C@@H](C)C(=O)N[C@H](C(=O)NCC=O)CCCc2ccc(O)c(c2)-c2cc1ccc2O [Compound 94]    < 1000 nM
2) CCCCCCCCCCCCCCCC(=O)N(C)[C@H](CO)C(=O)N[C@H](C)C(=O)NCC(=O)N(C)[C@@H]1C(=O)N[C@@H](C)C(=O)N[C@H](C(=O)NCC(O)C(=O)NC)Cc2ccc(O)c(c2)-c2cc1ccc2O (stereo partly shown) [Compound 90]    1000 to 10000 nM
3) CCCCCCCCCCCCCCCC(=O)N(C)[C@H](CN)C(=O)N[C@H](C)C(=O)NCC(=O)N(C)[C@@H]1C(=O)N[C@@H](C)C(=O)N[C@H](C(=O)O)Cc2ccc(O)c(c2)-c2cc1ccc2O [Compound 52]    < 1000 nM
4) CCCCCCCCCCCCCCCC(=O)N(C)[C@H](CO)C(=O)N[C@H](C)C(=O)NCC(=O)N(C)[C@@H]1C(=O)N[C@@H](C)C(=O)N[C@H](C(=O)O)CCCc2ccc(O)c(c2)-c2cc1ccc2O [Compound 83]    < 1000 nM

* * *

Reported MIC values are given for each entry in this list.
# Tested on: S. pneumoniae D39
# Test method notes: In vitro antimicrobial activity, MIC by broth micro-dilution
# Assay type: cell-based
# Condition label: Streptococcus pneumoniae, D39; read-out: MIC class, S. pneumoniae D39
Value type: MIC

1) CCCCCCCCCCC(=O)N(C)[C@H](CO)C(=O)N[C@H](C)C(=O)NCC(=O)N(C)[C@@H]1C(=O)N[C@@H](C)C(=O)N[C@H](C(=O)O)Cc2ccc(O)c(c2)-c2cc1ccc2O    > 64 µg/mL
2) CCCCCCCCCCCCCCCC(=O)N(C)[C@H](CO)C(=O)N[C@H](C)C(=O)NCC(=O)N(C)[C@@H]1C(=O)N[C@@H](C)C(=O)N[C@H](C(=O)NCC(O)C(=O)OC)Cc2ccc(O)c(c2)-c2cc1ccc2O (some centres unmarked)    < 8 µg/mL
3) CCCCc1ccc(-c2ccc(C(=O)N[C@H](CO)C(=O)N[C@H](C)C(=O)N[C@@H](CCCCN)C(=O)N(C)[C@@H]3C(=O)N[C@@H](C)C(=O)N[C@H](C(=O)O)Cc4ccc(O)c(c4)-c4cc3ccc4O)cc2)cc1    > 64 µg/mL
4) CCCCCCCCCCCCCCCC(=O)N(C)[C@H](CO)C(=O)N[C@H](C)C(=O)NCC(=O)N(C)[C@@H]1C(=O)N[C@@H](C)C(=O)N[C@H](C(=O)NC(CO)CO)Cc2ccc(O)c(c2)-c2cc1ccc2O    16 to 64 µg/mL
5) CCCCCCCCCCCCCCNC(=O)N(C)[C@H](CO)C(=O)N[C@H](C)C(=O)NCC(=O)N(C)[C@@H]1C(=O)N[C@@H](C)C(=O)N[C@H](C(=O)O)Cc2ccc(O)c(c2)-c2cc1ccc2O    16 to 64 µg/mL

* * *

# Tested target: S. aureus SPase (Staphylococcus aureus)
# Construct: Full length His-tagged S. aureus SPase protein was expressed similarly; His-tag; made in house; host or cells: E. coli BL21(DE3)
# Test method notes: Enzymatic fluorogenic substrate cleavage assay for IC50
# Assay type: biochemical
Reported IC50 values are given for each entry in this list.
Value type: IC50

1. CCCCCCCCCCCCCCCC(=O)N(C)[C@H](CO)C(=O)N[C@H](C)C(=O)NCC(=O)N(C)[C@@H]1C(=O)N[C@@H](C)C(=O)N[C@H](C(=O)N[C@H](C)CO)Cc2ccc(O)c(c2)-c2cc1ccc2O [Compound 63]    > 10 µM
2. CCCCCCCCCCCCCCCC(=O)N(C)C(CO)C(=O)N[C@H](C)C(=O)NCC(=O)N(C)[C@@H]1C(=O)N[C@@H](C)C(=O)NC(C(=O)NCC(=O)C(=O)N(C)C)Cc2ccc(O)c(c2)-c2cc1ccc2O (some centres unmarked) [Compound 59]    1 to 10 µM
